TEST_DESCRIPTION: Ratio of drug level in brain to plasma in Sprague-Dawley rat at 32.1 +/- 2.8 MBq, iv measured at 120 mins by radio-HPLC analysis
Type: ADME, organism-based
TEST_PARAMETERS: brain and plasma, 32.1 MBq, read-out: BPR
MEASUREMENT_KIND: Kp at 2 h
// no unit string in output, number only

Exam item: Value lookup for Kp at 2 h; key = CCN(CC)C(=O)Cc1c(-c2ccc(OCC[18F])cc2)nn2c(C)cc(C)nc12 [DPA-714 F-18]
Marked response: 11

====

TEST_DESCRIPTION: Biodistribution in Sprague-Dawley rat thighbone cortex at 32.1 +/- 2.8 MBq, iv measured at 120 mins by radio-HPLC analysis
Format: ADME, organism-based, Bone element
TEST_PARAMETERS: 32.1 MBq
MEASUREMENT_KIND: tissue uptake at 2 h (%)
The figure you give is taken to be in %; do not add the unit.

Exam item: Value lookup for tissue uptake at 2 h; key = CCN(CC)C(=O)Cc1c(-c2ccc(OCC[18F])cc2)nn2c(C)cc(C)nc12
Marked response: 35

====

TEST_DESCRIPTION: Retention time of the compound by LC-MS analysis
Format: physicochemical
Retention_time values, listed per item
The figure you give is taken to be in min; do not add the unit.

>  <GIVEN_SMILES>
CCNC(=O)Cc1c(-c2ccc(OCCF)cc2)nn2c(C)cc(C)nc12

>  <OBSERVED_VALUE>
16.1

$$$$
>  <GIVEN_SMILES>
CCN(CC)C(=O)Cc1c(-c2ccc(O)cc2)nn2c(C)cc(C)nc12

>  <OBSERVED_VALUE>
15.05

$$$$
>  <GIVEN_SMILES>
CCN(CC)C(=O)Cc1c(-c2ccc(OCCF)cc2)nn2c(CO)cc(C)nc12

>  <OBSERVED_VALUE>
15.85

$$$$
>  <GIVEN_SMILES>
CCNC(=O)Cc1c(-c2ccc(OCCF)cc2)nn2c(C)cc(CO)nc12

>  <OBSERVED_VALUE>
13.88

$$$$
>  <GIVEN_SMILES>
CCN(CC)C(=O)Cc1c(-c2ccc(OCCF)cc2)nn2c(C)cc(CO)nc12

>  <OBSERVED_VALUE>
16.87

$$$$

Exam item: Value lookup for Retention_time; key = CCN(CC)C(=O)Cc1c(-c2ccc(OCCF)cc2)nn2c(CO)cc(CO)nc12
Marked response: 14.28

Exam item: Value lookup for Retention_time; key = CCN(CC)C(=O)Cc1c(-c2ccc(OCCF)cc2)nn2c(C)c(O)c(C)nc12
Marked response: 16.43

====

Test system: Liver microsome
TEST_DESCRIPTION: Drug level in Sprague-Dawley rat liver microsomes treated with DPA-714 after 15 to 60 mins by LC-MS/MS analysis
MEASUREMENT_KIND: Drug metabolism

Before answering, review these 6 worked examples.
>  <GIVEN_SMILES>
CCN(CC)C(=O)Cc1c(-c2ccc(OCCF)cc2)nn2c(C)cc(CO)nc12

>  <MEASUREMENT_KIND>
Drug metabolism

>  <OBSERVED_VALUE>
metabolite_detected

$$$$
>  <GIVEN_SMILES>
CCNC(=O)Cc1c(-c2ccc(OCCF)cc2)nn2c(C)cc(C)nc12

>  <MEASUREMENT_KIND>
Drug metabolism

>  <OBSERVED_VALUE>
metabolite_detected

$$$$
>  <GIVEN_SMILES>
CCN(CC)C(=O)Cc1c(-c2ccc(OCCF)cc2)nn2c(CO)cc(C)nc12

>  <MEASUREMENT_KIND>
Drug metabolism

>  <OBSERVED_VALUE>
metabolite_detected

$$$$
>  <GIVEN_SMILES>
CCN(CC)C(=O)Cc1c(-c2ccc(O)cc2)nn2c(C)cc(C)nc12

>  <MEASUREMENT_KIND>
Drug metabolism

>  <OBSERVED_VALUE>
metabolite_detected

$$$$
>  <GIVEN_SMILES>
CCN(CC)C(=O)Cc1c(-c2ccc(OCCF)cc2)nn2c(C)c(O)c(C)nc12

>  <MEASUREMENT_KIND>
Drug metabolism

>  <OBSERVED_VALUE>
metabolite_detected

$$$$
>  <GIVEN_SMILES>
CCN(CC)C(=O)Cc1c(-c2ccc(OCCF)cc2)nn2c(CO)cc(CO)nc12

>  <MEASUREMENT_KIND>
Drug metabolism

>  <OBSERVED_VALUE>
metabolite_detected

$$$$

Lab note: next compound to report on.
Exam item: Value lookup for Drug metabolism; key = CCNC(=O)Cc1c(-c2ccc(OCCF)cc2)nn2c(C)cc(CO)nc12
Marked response: metabolite_detected

====

TEST_DESCRIPTION: Drug metabolism in baboon assessed as compound remaining measured at 30 mins by radio-HPLC analysis
Type: ADME, organism-based
TEST_PARAMETERS: papio anubis, in vivo; read-out: Stability
MEASUREMENT_KIND: remaining at 0.5 h (%)
The figure you give is taken to be in %; do not add the unit.

Exam item: Value lookup for remaining at 0.5 h; key = CCN(CC)C(=O)Cc1c(-c2ccc(OCC[18F])cc2)nn2c(C)cc(C)nc12 [DPA-714 F-18]
Marked response: 46

====

TEST_DESCRIPTION: Biodistribution in Sprague-Dawley rat plasma at 32.1 +/- 2.8 MBq, iv measured at 120 mins by radio-HPLC analysis
Assay type: ADME, organism-based
TEST_PARAMETERS: 32.1 MBq
MEASUREMENT_KIND: tissue uptake at 2 h (%)
The figure you give is taken to be in %; do not add the unit.

Exam item: Value lookup for tissue uptake at 2 h; key = CCN(CC)C(=O)Cc1c(-c2ccc(OCC[18F])cc2)nn2c(C)cc(C)nc12 [DPA-714 F-18]
Marked response: 15

====

TEST_DESCRIPTION: Drug metabolism in baboon assessed as compound remaining measured at 120 mins by radio-HPLC analysis
Type: ADME, organism-based
TEST_PARAMETERS: papio anubis, in vivo; read-out: Stability
MEASUREMENT_KIND: remaining at 2 h

Exam item: Value lookup for remaining at 2 h; key = CCN(CC)C(=O)Cc1c(-c2ccc(OCC[18F])cc2)nn2c(C)cc(C)nc12
Marked response: 11%

====

TEST_DESCRIPTION: Half life in baboon by radio-HPLC analysis
Assay type: ADME, organism-based
TEST_PARAMETERS: papio anubis, in vivo
MEASUREMENT_KIND: half-life
Please answer using the number first and the unit second.

Exam item: Value lookup for half-life; key = CCN(CC)C(=O)Cc1c(-c2ccc(OCC[18F])cc2)nn2c(C)cc(C)nc12
Marked response: 19 min

====

TEST_DESCRIPTION: Drug metabolism in baboon urine assessed as compound remaining measured at 180 mins by radio-HPLC analysis
Type: ADME, tissue-based
TEST_PARAMETERS: papio anubis, read-out: Stability
MEASUREMENT_KIND: remaining at 3 h

Exam item: Value lookup for remaining at 3 h; key = CCN(CC)C(=O)Cc1c(-c2ccc(OCC[18F])cc2)nn2c(C)cc(C)nc12
Marked response: < 2%

====

TEST_DESCRIPTION: Drug recovery in baboon by SPE method
Format: ADME, organism-based
TEST_PARAMETERS: papio anubis, in vivo; read-out: Drug recovery
MEASUREMENT_KIND: recovery (%)
The figure you give is taken to be in %; do not add the unit.

Exam item: Value lookup for recovery; key = CCN(CC)C(=O)Cc1c(-c2ccc(OCC[18F])cc2)nn2c(C)cc(C)nc12 [DPA-714 F-18]
Marked response: 94
